Below: a set of entries, each annotated with reported MIC.
System: Influenza A0
ASSAY_NAME: microbe, parasite or virus in culture
Assay type: cell-based
CONDITION_CONTEXT: virus A = Influenza A0, MDCK, Vero and HEL cells, 2 or 3 days
Enter your answer as a number in µg/mL; do not include the unit.

NC(=O)NNS(=O)(=O)c1cc(C(=O)O)c(Cl)cc1Cl [Compound 23]    100
NC(=O)C(=O)NNS(=O)(=O)c1cc(C(=O)O)c(Cl)cc1Cl [Compound 24]    100
NS(=O)(=O)c1cc(C(=O)O)cc(Cl)c1Cl [Compound 20]    10
Nc1cc(Cl)c(S(N)(=O)=O)cc1C(=O)O [Compound 14]    30

Request: State its MIC for this compound: N=C(N)NS(=O)(=O)c1cc(C(=O)O)c(Cl)cc1Cl [Compound 21]
Response: 100

###

Below: a set of entries, each annotated with reported responders at 100 mg/kg.
System: influenza A0 virus
ASSAY_NAME: animal or person
Format: in vivo, mice
CONDITION_CONTEXT: Mus musculus, ip, 360 h; intraperitoneal, 100 mg/kg, twice a day for 14 days; survivors at 15th day; read-out: Survival rate
Enter your answer as a number in %; do not include the unit.

A selection of reference data follows.
NS(=O)(=O)c1cc(C(=O)O)c(F)cc1Cl [Compound 16]    50
NS(=O)(=O)c1cc(C(=O)O)c(Cl)cc1F [Compound 17]    40
NS(=O)(=O)c1cc(C(=O)O)cc([N+](=O)[O-])c1Cl [Compound 15]    50
NS(=O)(=O)c1ccc(Cl)cc1C(=O)O [Compound 27]    40
Nc1cc(Cl)c(S(N)(=O)=O)cc1C(=O)O [Compound 14]    40
NS(=O)(=O)c1cc(Cl)cc(C(=O)O)c1 [Compound 25]    40
O=C(O)c1ccc(Cl)c(S(=O)(=O)N2CCCC2)c1 [Compound 12]    40

Next, consider the following molecule.
Request: State its responders at 100 mg/kg for this molecule: O=C(O)c1ccc(Cl)c(S(=O)(=O)NNc2ccc(Cl)nn2)c1 [Compound 10]
Response: 40

###

Below: a set of entries, each annotated with reported MIC.
System: Influenza A0
ASSAY_NAME: microbe, parasite or virus in culture
Assay type: cell-based
CONDITION_CONTEXT: virus A = Influenza A0, MDCK, Vero and HEL cells, 2 or 3 days
Please give the number followed by its unit.

CN1CCN(S(=O)(=O)c2cc(C(=O)O)ccc2Cl)CC1    10 µg/mL
NS(=O)(=O)c1cc(C(=O)O)cc([N+](=O)[O-])c1Cl    30 µg/mL
NS(=O)(=O)c1cc(C(=O)O)c(Br)cc1Cl    30 µg/mL
O=C(O)c1ccc(Cl)c(S(=O)(=O)NCCO)c1    30 µg/mL

Next, consider the following molecule.
Request: State its MIC for this molecule: CN(CCO)S(=O)(=O)c1cc(C(=O)O)ccc1Cl
Response: 30 µg/mL

###

System: Influenza B
ASSAY_NAME: microbe, parasite or virus in culture
Format: cell-based
Below: a set of entries, each annotated with reported MIC.
Enter your answer as a number in mg/L; do not include the unit.

A selection of reference data follows.
O=C(O)c1ccc(Cl)c(S(=O)(=O)NCCO)c1 [Compound 5]    300
NS(=O)(=O)c1cc(C(=O)O)c(F)cc1Cl [Compound 16]    300
NS(=O)(=O)c1cc(Br)cc(C(=O)O)c1 [Compound 26]    300
NC(=O)C(=O)NNS(=O)(=O)c1cc(C(=O)O)c(Cl)cc1Cl [Compound 24]    300

Request: State its MIC for this compound: NS(=O)(=O)c1cc(C(=O)O)cc(Cl)c1Cl [Compound 20]
Response: 100

Request: State its MIC for this compound: N=C(N)NNS(=O)(=O)c1cc(C(=O)O)c(Cl)cc1Cl [Compound 22]
Response: 300

Request: State its MIC for this compound: CONS(=O)(=O)c1cc(C(=O)O)ccc1Cl [Compound 4]
Response: 100
